Tested on: Staphylococcus aureus MW2 delta-mecA (mecA-)
test name: normalized GFP fluorescence (growth of mecA- strain) (fraction of control range); higher = more growth of mecA- strain
condition context: compound concentration: 150 uM; cefoxitin: subinhibitory; fluorescent label: GFP
Kindly return 1 if reported normalized GFP fluorescence is no lower than 0.3; return 0 if it is lower.

Solved entries (count: 6):
molecule	qualitative label
CCCCCCOC(=O)NC(=N)c1ccc(NCc2nc3cc(C(=O)N(CCC(=O)OCC)c4ccccn4)ccc3n2C)cc1	0
C1N2CN3CN1CN(C2)C3	0
CN1C(C(=O)Nc2ccccn2)=C(O)c2ccccc2S1(=O)=O	0
CCCCCC(=O)O[C@]1(C(C)=O)CC[C@H]2[C@@H]3CCC4=CC(=O)CC[C@]4(C)[C@H]3CC[C@@]21C	1
NC[C@@H]1O[C@@H](O[C@H]2[C@H](O)[C@@H](O[C@H]3O[C@H](CO)[C@@H](O)[C@H](N)[C@H]3O)[C@H](N)C[C@@H]2N)[C@@H](O)[C@H](O)[C@H]1O	1
CNCCC(Oc1ccc(C(F)(F)F)cc1)c1ccccc1 (centres undefined)	0

INPUT: Assess whether reported normalized GFP fluorescence for CC1(C)O[C@@H]2C[C@H]3[C@@H]4CCC5=CC(=O)CC[C@]5(C)[C@@]4(F)[C@@H](O)C[C@]3(C)[C@]2(C(=O)CCl)O1 sits at 0.3 or higher.
OUTPUT: 0

INPUT: Assess whether reported normalized GFP fluorescence for Cc1c2oc3c(C)ccc(C(=O)N[C@@H]4C(=O)N[C@H](C(C)C)C(=O)N5CCC[C@H]5C(=O)N(C)CC(=O)N(C)[C@@H](C(C)C)C(=O)O[C@@H]4C)c3nc-2c(C(=O)N[C@@H]2C(=O)N[C@H](C(C)C)C(=O)N3CCC[C@H]3C(=O)N(C)CC(=O)N(C)[C@@H](C(C)C)C(=O)O[C@@H]2C)c(N)c1=O sits at 0.3 or higher.
OUTPUT: 0

INPUT: Assess whether reported normalized GFP fluorescence for CCCCCCCCCC(=O)N[C@@H](Cc1c[nH]c2ccccc12)C(=O)N[C@H](CC(N)=O)C(=O)N[C@@H](CC(=O)O)C(=O)N[C@@H]1C(=O)NCC(=O)N[C@@H](CCCN)C(=O)N[C@@H](CC(=O)O)C(=O)N[C@H](C)C(=O)N[C@@H](CC(=O)O)C(=O)NCC(=O)N[C@H](CO)C(=O)N[C@@H]([C@H](C)CC(=O)O)C(=O)N[C@@H](CC(=O)c2ccccc2N)C(=O)O[C@@H]1C sits at 0.3 or higher.
OUTPUT: 0

INPUT: Assess whether reported normalized GFP fluorescence for O=c1oc2cc(O)ccc2s1 sits at 0.3 or higher.
OUTPUT: 1

INPUT: Assess whether reported normalized GFP fluorescence for CC(=O)c1ccc2c(c1)N(CCCN(C)C)c1ccccc1S2 sits at 0.3 or higher.
OUTPUT: 0

----------
Reported normalized DsRed fluorescence is given for each of the following molecules.
Test system: Staphylococcus aureus MW2 (mecA+)
test name: normalized DsRed fluorescence (growth of mecA+ strain) (fraction of control range); higher = more growth of mecA+ strain
condition context: compound concentration: 150 uM; cefoxitin: subinhibitory; fluorescent label: DsRed

molecule	normalized DsRed fluorescence
CC(Oc1c(Cl)cccc1Cl)C1=NCCN1 (configuration not stated)	0.569
O=C(c1cc(Cc2n[nH]c(=O)c3ccccc23)ccc1F)N1CCN(C(=O)C2CC2)CC1	0.856
Cc1nc2n(c(=O)c1CCN1CCC(c3noc4cc(F)ccc34)CC1)CCCC2	0.492
NCC(=O)CCC(=O)O	1.12

INPUT: // Input: N#C[C@@H]1CCCN1C(=O)CNC12CC3CC(CC(O)(C3)C1)C2 . Output its normalized DsRed fluorescence only.
OUTPUT: 0.519

INPUT: // Input: O=C1CCC(N2C(=O)c3ccccc3C2=O)C(=O)N1 (configuration not stated) . Output its normalized DsRed fluorescence only.
OUTPUT: 0.635

INPUT: // Input: CCCCCNC(=N)N/N=C/c1c[nH]c2ccc(OC)cc12 . Output its normalized DsRed fluorescence only.
OUTPUT: 0.587

----------
Tested on: Staphylococcus aureus MW2 (mecA+)
test name: normalized DsRed fluorescence (growth of mecA+ strain) (fraction of control range); higher = more growth of mecA+ strain
condition context: compound concentration: 150 uM; cefoxitin: subinhibitory; fluorescent label: DsRed
Kindly return y if reported normalized DsRed fluorescence is no lower than 0.7; return n if it is lower.

compound	study target	qualitative label
NC[C@@H]1O[C@@H](O[C@H]2[C@H](O)[C@@H](O[C@H]3O[C@H](CO)[C@@H](O)[C@H](N)[C@H]3O)[C@H](N)C[C@@H]2N)[C@@H](O)[C@H](O)[C@H]1O	Staphylococcus aureus MW2 (mecA+)	y

INPUT: Assess whether reported normalized DsRed fluorescence for Cc1ccnc(NS(=O)(=O)c2ccc(N)cc2)n1 sits at 0.7 or higher.
OUTPUT: n

INPUT: Assess whether reported normalized DsRed fluorescence for CC12CC3CC(C)(C1)CC(N)(C3)C2 sits at 0.7 or higher.
OUTPUT: n

INPUT: Assess whether reported normalized DsRed fluorescence for CCCCN1CCCCC1C(=O)Nc1c(C)cccc1C (configuration not stated) sits at 0.7 or higher.
OUTPUT: y

INPUT: Assess whether reported normalized DsRed fluorescence for NCCc1c[nH]cn1 sits at 0.7 or higher.
OUTPUT: n

INPUT: Assess whether reported normalized DsRed fluorescence for O=C(O)CCC(=O)Nc1ccc(S(=O)(=O)Nc2nccs2)cc1 sits at 0.7 or higher.
OUTPUT: y

INPUT: Assess whether reported normalized DsRed fluorescence for CNC(=O)CN(CCN(CCN(CC(=O)O)CC(=O)NC)CC(=O)O)CC(=O)O.O.[Gd] [Gadodiamide (Omniscan)] sits at 0.7 or higher.
OUTPUT: n

----------
Tested on: Staphylococcus aureus MW2 delta-mecA (mecA-)
test name: normalized GFP fluorescence (growth of mecA- strain) (fraction of control range); higher = more growth of mecA- strain
condition context: compound concentration: 150 uM; cefoxitin: subinhibitory; fluorescent label: GFP
quantity name: normalized GFP fluorescence
# print the numeric value only

// below: answered compounds
compound	quantity name	value reported
CC(=O)N[C@H]1[C@H]([C@H](O)[C@H](O)CO)OC(C(=O)O)=C[C@@H]1NC(=N)N [Zanamivir (Relenza)]	normalized GFP fluorescence	0.233
COC(=O)C1=C(C#N)NC(C)=C(C(=O)OC(C)C)C1c1cccc([N+](=O)[O-])c1 (stereo unspecified)	normalized GFP fluorescence	0.333
NC[C@H]1O[C@H](O[C@H]2[C@H](O[C@@H]3O[C@H](CO)[C@@H](O)[C@H]3O)[C@@H](O)[C@H](N)C[C@@H]2N)[C@H](N)[C@@H](O)[C@@H]1O	normalized GFP fluorescence	0.457
CCN(CC)CCNC(=O)c1ccc(N)cc1	normalized GFP fluorescence	0.328
CC(N/C(=N\C#N)Nc1ccncc1)C(C)(C)C (stereo unspecified)	normalized GFP fluorescence	0.124

# next compound below
INPUT: // Input: CC(=O)O[C@H]1CC[C@@]2(C)C(=CC[C@@H]3[C@@H]2CC[C@]2(C)C(c4cccnc4)=CC[C@@H]32)C1 [Abiraterone Acetate (CB7630)] . Output its normalized GFP fluorescence only.
OUTPUT: 0.278

----------
Test system: Staphylococcus aureus MW2 (mecA+)
test name: normalized DsRed fluorescence (growth of mecA+ strain) (fraction of control range); higher = more growth of mecA+ strain
condition context: compound concentration: 150 uM; cefoxitin: subinhibitory; fluorescent label: DsRed
quantity name: normalized DsRed fluorescence

// below: answered molecules
molecule	value reported
NC[C@@H]1O[C@H](O[C@H]2[C@@H](O)[C@H](O[C@@H]3[C@@H](O)[C@H](N)C[C@H](N)[C@H]3O[C@H]3O[C@H](CN)[C@@H](O)[C@H](O)[C@H]3N)O[C@@H]2CO)[C@H](N)[C@@H](O)[C@@H]1O	0.718
COc1ccc(CCN(C)CCCC(C#N)(c2ccc(OC)c(OC)c2)C(C)C)cc1OC (stereo not given)	0.717
COc1cc2nc(N(C)CCCNC(=O)C3CCCO3)nc(N)c2cc1OC (stereo not given)	0.686
C/C=C/c1ccc(OC)cc1	0.71

INPUT: // Input: COc1ccc(CC(C)NCC(O)c2ccc(O)c(NC=O)c2)cc1 (stereo not given) [Formoterol hemifumarate] . Output its normalized DsRed fluorescence only.
OUTPUT: 0.699

----------
System: Staphylococcus aureus MW2 (mecA+)
test name: normalized DsRed fluorescence (growth of mecA+ strain) (fraction of control range); higher = more growth of mecA+ strain
condition context: compound concentration: 150 uM; cefoxitin: subinhibitory; fluorescent label: DsRed
Reported normalized DsRed fluorescence is given for each of the following compounds.
# print the numeric value only

// below: answered compounds
compound	normalized DsRed fluorescence
Cc1ncc([N+](=O)[O-])n1CC(C)O (stereo unspecified)	0.482
CC(=O)NCCCS(=O)(=O)O	0.742
CCCCNc1ccc(C(=O)OCCN(C)C)cc1	0.719
CC(C)COCC(CN(Cc1ccccc1)c1ccccc1)N1CCCC1 (stereo unspecified)	0.96
NS(=O)(=O)c1cc2c(cc1Cl)NC(C1CC3C=CC1C3)NS2(=O)=O (stereo unspecified)	0.69

INPUT: Report its normalized DsRed fluorescence with Staphylococcus aureus MW2 (mecA+) as the test system: CCN(CCCCOC(=O)c1ccc(OC)c(OC)c1)C(C)Cc1ccc(OC)cc1 (stereo unspecified)
OUTPUT: 0.559

INPUT: Report its normalized DsRed fluorescence with Staphylococcus aureus MW2 (mecA+) as the test system: COc1ccc(O)cc1
OUTPUT: 0.504
